Target: Factor X, P00742
Sequence (P00742 whole entry, looked up): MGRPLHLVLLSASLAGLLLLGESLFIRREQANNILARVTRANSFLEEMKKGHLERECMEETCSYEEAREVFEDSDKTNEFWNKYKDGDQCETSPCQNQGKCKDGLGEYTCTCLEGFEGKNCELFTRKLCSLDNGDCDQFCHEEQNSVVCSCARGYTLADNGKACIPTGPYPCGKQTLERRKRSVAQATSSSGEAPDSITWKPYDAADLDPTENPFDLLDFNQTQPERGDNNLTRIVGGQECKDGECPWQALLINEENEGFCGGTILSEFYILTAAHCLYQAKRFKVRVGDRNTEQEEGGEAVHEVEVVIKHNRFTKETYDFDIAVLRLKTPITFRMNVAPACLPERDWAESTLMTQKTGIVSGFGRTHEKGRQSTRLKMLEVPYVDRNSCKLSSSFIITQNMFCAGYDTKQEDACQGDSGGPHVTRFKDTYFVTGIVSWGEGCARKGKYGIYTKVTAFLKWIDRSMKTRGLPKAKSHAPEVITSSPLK
endpoint.name: kcat/KM

- FIXa-K247N/N249S/R318Y/R338E/R403E (protein) chain 1: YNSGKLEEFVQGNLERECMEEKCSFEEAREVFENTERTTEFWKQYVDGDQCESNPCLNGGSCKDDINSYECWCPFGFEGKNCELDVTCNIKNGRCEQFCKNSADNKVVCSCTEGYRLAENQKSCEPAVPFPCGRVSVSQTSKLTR chain 2: VVGGEDAKPGQFPWQVVLNGKVDAFCGGSIVNEKWIVTAAHCVETGVKITVVAGEHNIEETEHTEQNRSVIRIIPHHNYNAAINKYNHDIALLELDEPLVLNSYVTPICIADKEYTNIFLKFGSGYVSGWGRVFHKGYSALVLQYLRVPLVDRATCLESTKFTIYNNMFCAGFHEGGRDSCQGDSGGPHVTEVEGTSFLTGIISWGEECAMKGKYGIYTKVSEYVNWIKEKTKLT: 2.3e+08 M⁻¹ s⁻¹
